B1: Homeobox protein cut-like 2, residues 895 to 963; numbered along this chain, O14529 (parent)
chain: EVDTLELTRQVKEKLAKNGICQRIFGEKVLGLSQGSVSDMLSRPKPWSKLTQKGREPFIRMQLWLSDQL

- Variants of: B1
- assayProcedure: abundance fitness (aPCA) (normalised: wild type 0, dead -1); higher = more abundant; growth selection in yeast, the domain comes from the species named
- assayConditions: Homo sapiens
endpointName: abundance fitness
Enter a number only.

In the examples that follow, each entry is paired with its recorded abundance fitness.
sequenceVariant | value
T8L | -0.157
E27V | -0.18
L69E | -0.068
V29E | -0.535
S48A | -0.064
K17S | -0.208

Task item: Suppose we examine the variant `E27P` ; what abundance fitness value has been reported?
Reply: -0.106

Task item: Suppose we examine the variant `E56D` ; what abundance fitness value has been reported?
Reply: -0.186

Task item: Suppose we examine the variant `L63C` ; what abundance fitness value has been reported?
Reply: -0.127

Task item: Suppose we examine the variant `K14A` ; what abundance fitness value has been reported?
Reply: -0.064

Task item: Suppose we examine the variant `E27Q` ; what abundance fitness value has been reported?
Reply: -0.007

Task item: Suppose we examine the variant `W64I` ; what abundance fitness value has been reported?
Reply: -1.19

Task item: Suppose we examine the variant `V2E` ; what abundance fitness value has been reported?
Reply: -0.019

Task item: Suppose we examine the variant `A16S` ; what abundance fitness value has been reported?
Reply: 0.008

Task item: Suppose we examine the variant `L30M` ; what abundance fitness value has been reported?
Reply: -0.178

Task item: Suppose we examine the variant `S48E` ; what abundance fitness value has been reported?
Reply: -0.103

Task item: Suppose we examine the variant `S42T` ; what abundance fitness value has been reported?
Reply: -0.169
